Where these numbers come from: patent US20090317414A1

Biological target: T1, soluble H-2K^b (soluble extracellular domains; heavy chain residues 1-274 with C-terminal His-tag and β2-microglobulin residues 1-99) (mouse)
T1 chain: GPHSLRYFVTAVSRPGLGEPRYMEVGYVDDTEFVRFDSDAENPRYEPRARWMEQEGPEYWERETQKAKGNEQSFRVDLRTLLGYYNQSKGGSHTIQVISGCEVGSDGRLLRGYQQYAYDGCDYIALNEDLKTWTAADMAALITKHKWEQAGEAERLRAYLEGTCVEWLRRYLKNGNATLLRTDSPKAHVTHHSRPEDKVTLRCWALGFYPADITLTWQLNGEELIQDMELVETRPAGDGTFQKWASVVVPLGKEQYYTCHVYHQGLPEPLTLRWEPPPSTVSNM
Test: inhibition assay with soluble H-2K^b, 37° C.
measured quantity: pKd
Bear in mind: pKd is minus log10 of a mol/L concentration; give just that figure.

Request: Supply recorded pKd for RGYVYQGL (modifications not checked) [VSV8 (RGYVYQGL), Vesicular stomatitis virus NP52-59] here.
Response: 6.79
